Can you tell me selectivity ratio for the items I'm about to list?
# Measurement Description: Selectivity index ratio of CC50 for human MT4 cells to EC50 for HIV1 3B
# Type: toxicity, cell-based
# Setup Conditions: read-out: Ratio CC50/EC50
Numbers only.

Record excerpt, results attached:
| Compound | selectivity ratio |
| --- | --- |
| N#Cc1ccc(Nc2nccc([C@H](O)c3ccccc3Cl)n2)cc1 | 6800 |
| N#Cc1ccc(Nc2nccc(C(O)c3ccccc3Cl)n2)cc1 (racemic) | 3230 |

Okay, now this compound:
// query May I ask what selectivity ratio has been recorded for N#Cc1ccc(Nc2nccc([C@@H](O)c3ccccc3Cl)n2)cc1 ?
// result 373

----------
Can you tell me pEC50 for the items I'm about to list?
# Tested on: Human immunodeficiency virus 1
# Measurement Description: Antiviral activity against HIV1 3B harboring wild type RT infected in MT4 cells assessed as inhibition of virus-induced cytopathic effect after 5 days by MTT assay
# Format: functional, organism-based
# Setup Conditions: Human immunodeficiency virus 1, 3B, MT4, 120 h
Give bare numbers, as −log10 of the molar value.

| Compound | Measured Result |
| --- | --- |
| N#Cc1ccc(Nc2nccc([C@H](O)c3ccccc3Cl)n2)cc1 | 8.30 |

Each of the following entries comes with a recorded value; kindly state pEC50 for each.
1. Cc1cc(C#N)cc(C)c1Oc1nc(Nc2ccc(C#N)cc2)nc(N)c1Br [ETRAVIRINE]
2. N#Cc1ccc(Nc2nccc([C@@H](O)c3ccccc3Cl)n2)cc1

// result
1: 8.70; 2: 7.19

----------
# Target Of Assay: UniProt:Q72547
# Measurement Description: Inhibition of HIV1 wildtype reverse transcriptase using poly(rA)/oligo(dT)15 as template by colometric streptavidin alkaline phosphate reporter assay
Measurement Kind: IC50 (nM)
Give bare numbers, in nM.

// query May I ask what IC50 has been recorded for N#Cc1ccc(Nc2nccc(C(O)c3ccccc3Cl)n2)cc1 (racemic) ?
// result 450

----------
# Measurement Description: Cytotoxicity against human MT4 cells after 5 days by MTT assay
# Format: cell-based
Can you tell me CC50 at 120 h for the items I'm about to list?
One number for each entry, in µM.

Each of the following entries comes with a recorded value; kindly state CC50 at 120 h for each.
1. N#Cc1ccc(Nc2nccc([C@H](O)c3ccccc3Cl)n2)cc1
2. N#Cc1ccc(Nc2nccc([C@@H](O)c3ccccc3Cl)n2)cc1
3. N#Cc1ccc(Nc2nccc(C(O)c3ccccc3Cl)n2)cc1 (racemic)
4. Cc1cc(C#N)cc(C)c1Oc1nc(Nc2ccc(C#N)cc2)nc(N)c1Br

// result
36
25
29
28

----------
# Measurement Description: Cytotoxicity against human MT4 cells after 5 days by MTT assay
# Assay type: cell-based
Measurement Kind: CC50 at 120 h

| Compound | CC50 at 120 h |
| --- | --- |
| O=C1Nc2ccc(Cl)cc2[C@@](C#CC2CC2)(C(F)(F)F)O1 [EFAVIRENZ] | > 6.3 µM |
| Cc1ccnc2c1NC(=O)c1cccnc1N2C1CC1 [NEVIRAPINE] | > 15 µM |
| CC(C)Nc1cccnc1N1CCN(C(=O)c2cc3cc(NS(C)(=O)=O)ccc3[nH]2)CC1 [DELAVIRDINE] | > 4.4 µM |

Okay, now this compound:
// query May I ask what CC50 at 120 h has been recorded for Cc1cn([C@H]2C[C@H](N=[N+]=[N-])[C@@H](CO)O2)c(=O)[nH]c1=O [ZIDOVUDINE] ?
// result ≥ 46 µM
